- Assay Name: Half life in rat liver microsomes
- Assay type: ADME
- Details: liver microsomes
Quantity Kind: half-life (min)

[[record]]
smiles_repr = "N[C@H]1COCC[C@H]1Nc1cc2nc[nH]c(=O)c2c(Nc2cccc3cc[nH]c23)n1"
value_measured = 14

[[record]]
smiles_repr = "Cn1ccc2cccc(Nc3nc(N[C@@H]4CCCC[C@@H]4N)cc4nc[nH]c(=O)c34)c21"
value_measured = 9

[[record]]
smiles_repr = "N[C@H]1CCCC[C@H]1Nc1cc2nc[nH]c(=O)c2c(Nc2cccc3c(Cl)c[nH]c23)n1"
value_measured = 19

[[record]]
smiles_repr = "Cc1c[nH]c2c(Nc3nc(N[C@@H]4CCCC[C@@H]4N)cc4cc[nH]c(=O)c34)cccc12"
value_measured = 27


A = Cc1nc2cc(N[C@@H]3CCCC[C@@H]3N)nc(Nc3cccc4c(C)c[nH]c34)c2c(=O)[nH]1
B = Cc1c[nH]c2c(Nc3nc(N[C@@H]4CCCC[C@@H]4N)cc4nc[nH]c(=O)c34)cccc12
C = C[C@H](N)CNc1cc2nc[nH]c(=O)c2c(Nc2cccc3cc[nH]c23)n1
I would appreciate it if you could sort these 3 compounds by half-life, starting from the smallest number. Reply: labels, ordered per the request.
C, B, A

====

# key: entry, value: t1/2
- Assay Name: Half life in rat liver S9 fraction assessed as conversion into 5-(1H-indol-7-ylamino)-7-((1R,2S)-2-aminocyclohexylamino)pyrido[4,3-d]pyrimidine-2,4(1H,3H)-dione in presence of NADPH
- Type: ADME, subcellular

[[record]]
smiles_repr = "N[C@H]1CCCC[C@H]1Nc1cc2nc[nH]c(=O)c2c(Nc2cccc3cc[nH]c23)n1"
value_measured = "< 0.083 h"

[[record]]
smiles_repr = "Cc1nc2cc(N[C@@H]3CCCC[C@@H]3N)nc(Nc3cccc4c(C)c[nH]c34)c2c(=O)[nH]1"
value_measured = "> 2 h"

[[record]]
smiles_repr = "Cn1cc2c(Nc3nc(N[C@@H]4CCOC[C@@H]4N)cc4cc[nH]c(=O)c34)cccc2n1"
value_measured = "> 2 h"


t1/2 measured on `N[C@H]1CCCC[C@H]1Nc1cc2cc[nH]c(=O)c2c(Nc2cccc3c(Cl)c[nH]c23)n1` = > 2 h

====

- System Under Test: Tyrosine-protein kinase Lyn (Homo sapiens)
- Sequence (P07948 whole entry): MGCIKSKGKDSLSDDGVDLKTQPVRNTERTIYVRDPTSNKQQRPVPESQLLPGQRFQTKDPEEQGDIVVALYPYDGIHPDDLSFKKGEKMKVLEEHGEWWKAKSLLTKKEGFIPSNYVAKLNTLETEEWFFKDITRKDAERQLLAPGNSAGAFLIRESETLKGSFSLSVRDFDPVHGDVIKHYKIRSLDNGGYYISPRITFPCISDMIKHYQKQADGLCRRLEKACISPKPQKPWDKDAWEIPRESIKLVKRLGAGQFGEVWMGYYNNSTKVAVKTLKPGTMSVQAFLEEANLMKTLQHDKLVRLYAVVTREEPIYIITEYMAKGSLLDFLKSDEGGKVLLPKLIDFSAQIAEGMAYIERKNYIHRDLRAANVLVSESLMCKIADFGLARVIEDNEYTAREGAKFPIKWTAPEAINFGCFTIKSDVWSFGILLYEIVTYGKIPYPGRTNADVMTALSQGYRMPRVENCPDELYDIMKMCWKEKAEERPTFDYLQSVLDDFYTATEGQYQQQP
Quantity Kind: IC50 (nM)

[[record]]
smiles_repr = "N[C@H]1CCCC[C@H]1Nc1cc2nc[nH]c(=O)c2c(Nc2cccc3c(Cl)c[nH]c23)n1"
quantity_kind = "IC50"
value_measured = 1000

[[record]]
smiles_repr = "Cc1c[nH]c2c(Nc3nc(N[C@@H]4CCCC[C@@H]4N)cc4nc[nH]c(=O)c34)cccc12"
quantity_kind = "IC50"
value_measured = 44

[[record]]
smiles_repr = "N[C@H]1COCC[C@H]1Nc1cc2nc[nH]c(=O)c2c(Nc2cccc3cc[nH]c23)n1"
quantity_kind = "IC50"
value_measured = 230

[[record]]
smiles_repr = "N[C@H]1CCCC[C@H]1Nc1cc2nc[nH]c(=O)c2c(Nc2cccc3[nH]ccc23)n1"
quantity_kind = "IC50"
value_measured = 32


I = Cn1cc2c(Nc3nc(N[C@@H]4CCOC[C@@H]4N)cc4cc[nH]c(=O)c34)cccc2n1
II = Cc1c[nH]c2c(Nc3nc(N[C@@H]4CCOC[C@@H]4N)cc4nc[nH]c(=O)c34)cccc12
# return whichever of I and II has the smaller IC50 Choose, then provide that item's label.
II
(II: 69 nM, I: 190 nM)

====

- Assay Name: Half life in rat liver microsomes
- Type: ADME
- Details: liver microsomes
Quantity Kind: half-life (min)

// known answers, use as guide
[[record]]
smiles_repr = "Cn1cc2c(Nc3nc(N[C@@H]4CCOC[C@@H]4N)cc4cc[nH]c(=O)c34)cccc2n1"
value_measured = 22

[[record]]
smiles_repr = "N[C@H]1CCCC[C@H]1Nc1cc2nc[nH]c(=O)c2c(Nc2cccc3[nH]ccc23)n1"
value_measured = 17


P = N[C@H]1CCCC[C@H]1Nc1cc2cc[nH]c(=O)c2c(Nc2cccc3c(Cl)c[nH]c23)n1
Q = Cc1c[nH]c2c(Nc3nc(N[C@@H]4CCOC[C@@H]4N)cc4nc[nH]c(=O)c34)cccc12
R = N[C@H]1COCC[C@H]1Nc1cc2cc[nH]c(=O)c2c(Nc2cccc3cc[nH]c23)n1
I would appreciate it if you could sort these 3 compounds by half-life, starting from the smallest number. Reply: labels, ordered per the request.
P, Q, R
(P: 9 min, Q: 20 min, R: 50 min)

====

- System Under Test: Tyrosine-protein kinase SYK (Homo sapiens)
- Assay Name: Inhibition of Syk in anti IgM-stimulated human Ramos cells assessed as BLNK phosphorylation by cellular assay
pIC50: −log10 of the molar value.
Quantity Kind: pIC50

[[record]]
smiles_repr = "N[C@H]1CCCC[C@H]1Nc1cc2nc[nH]c(=O)c2c(Nc2cccc3c(Cl)c[nH]c23)n1"
system_under_test = "Tyrosine-protein kinase SYK (Homo sapiens)"
quantity_kind = "pIC50"
value_measured = 6.49

[[record]]
smiles_repr = "Cc1c[nH]c2c(Nc3nc(N[C@@H]4CCCC[C@@H]4N)cc4nc[nH]c(=O)c34)cccc12"
system_under_test = "Tyrosine-protein kinase SYK (Homo sapiens)"
quantity_kind = "pIC50"
value_measured = 7.33


A = Cc1c[nH]c2c(Nc3nc(N[C@@H]4CCOC[C@@H]4N)cc4nc[nH]c(=O)c34)cccc12
B = Cn1cc2c(Nc3nc(N[C@@H]4CCOC[C@@H]4N)cc4cc[nH]c(=O)c34)cccc2n1
C = Cn1ccc2cccc(Nc3nc(N[C@@H]4CCCC[C@@H]4N)cc4nc[nH]c(=O)c34)c21
D = C[C@H](N)CNc1cc2nc[nH]c(=O)c2c(Nc2cccc3cc[nH]c23)n1
E = O=c1[nH]cnc2cc(N[C@@H]3CCCNC3)nc(Nc3cccc4cc[nH]c34)c12
Sort by pIC50, descending. Reply: labels, ordered per the request.
A, B, D, E, C
(A: 7.43, B: 7.11, D: 6.68, E: 6.42, C: 5.03)

====

- Assay Name: Terminal half life Sprague-Dawley rat at 1 mg/kg, iv and 3 mg/kg, po
- Assay type: ADME, organism-based
- Details: in vivo, read-out: beta t1/2 (converted)
Quantity Kind: half-life (h)

[[record]]
smiles_repr = "Cc1c[nH]c2c(Nc3nc(N[C@@H]4CCCC[C@@H]4N)cc4nc[nH]c(=O)c34)cccc12"
quantity_kind = "half-life"
measurement_unit = "h"
value_measured = 13


a = N[C@H]1CCCC[C@H]1Nc1cc2nc[nH]c(=O)c2c(Nc2cccc3cc[nH]c23)n1
b = Cc1c[nH]c2c(Nc3nc(N[C@@H]4CCOC[C@@H]4N)cc4nc[nH]c(=O)c34)cccc12
# return whichever of a and b has the smaller half-life Choose, then provide that item's label.
b

====

- System Under Test: Tyrosine-protein kinase SYK (Homo sapiens)
- Assay Name: Inhibition of Syk in human whole blood assessed as inhibition of P-SLP76 in CD14+ monocytes by flow cytometry
Quantity Kind: IC50 (nM)

[[record]]
smiles_repr = "N[C@H]1COCC[C@H]1Nc1cc2cc[nH]c(=O)c2c(Nc2cccc3cc[nH]c23)n1"
measurement_unit = "nM"
value_measured = 433


1 = O=c1[nH]cnc2cc(N[C@@H]3CCCNC3)nc(Nc3cccc4cc[nH]c34)c12
2 = C[C@H](N)CNc1cc2nc[nH]c(=O)c2c(Nc2cccc3cc[nH]c23)n1
3 = Cn1cc2c(Nc3nc(N[C@@H]4CCOC[C@@H]4N)cc4cc[nH]c(=O)c34)cccc2n1
4 = N[C@H]1COCC[C@H]1Nc1cc2nc[nH]c(=O)c2c(Nc2cccc3cc[nH]c23)n1
Sort by IC50, descending. Reply: labels, ordered per the request.
1, 2, 3, 4

====

- Assay Name: Plasma bioavailability in Wistar rat at 3 mg/kg, iv and 10 mg/kg, po
- Assay type: ADME, organism-based
Quantity Kind: bioavailability (%)
Kindly provide the numeric value in % only, without the unit symbol.

bioavailability measured on `N[C@H]1COCC[C@H]1Nc1cc2cc[nH]c(=O)c2c(Nc2cccc3cc[nH]c23)n1` = 7

====

- Assay Name: Volume of distribution at steady state in Wistar rat at 3 mg/kg, iv and 10 mg/kg, po
- Type: ADME, organism-based
- Details: in vivo, read-out: Vdss
Quantity Kind: Vd (L/kg)
Kindly provide the numeric value in L/kg only, without the unit symbol.

Vd measured on `N[C@H]1COCC[C@H]1Nc1cc2cc[nH]c(=O)c2c(Nc2cccc3cc[nH]c23)n1` = 18

====

- System Under Test: Tyrosine-protein kinase JAK2 (Homo sapiens)
- Sequence (O60674 whole entry): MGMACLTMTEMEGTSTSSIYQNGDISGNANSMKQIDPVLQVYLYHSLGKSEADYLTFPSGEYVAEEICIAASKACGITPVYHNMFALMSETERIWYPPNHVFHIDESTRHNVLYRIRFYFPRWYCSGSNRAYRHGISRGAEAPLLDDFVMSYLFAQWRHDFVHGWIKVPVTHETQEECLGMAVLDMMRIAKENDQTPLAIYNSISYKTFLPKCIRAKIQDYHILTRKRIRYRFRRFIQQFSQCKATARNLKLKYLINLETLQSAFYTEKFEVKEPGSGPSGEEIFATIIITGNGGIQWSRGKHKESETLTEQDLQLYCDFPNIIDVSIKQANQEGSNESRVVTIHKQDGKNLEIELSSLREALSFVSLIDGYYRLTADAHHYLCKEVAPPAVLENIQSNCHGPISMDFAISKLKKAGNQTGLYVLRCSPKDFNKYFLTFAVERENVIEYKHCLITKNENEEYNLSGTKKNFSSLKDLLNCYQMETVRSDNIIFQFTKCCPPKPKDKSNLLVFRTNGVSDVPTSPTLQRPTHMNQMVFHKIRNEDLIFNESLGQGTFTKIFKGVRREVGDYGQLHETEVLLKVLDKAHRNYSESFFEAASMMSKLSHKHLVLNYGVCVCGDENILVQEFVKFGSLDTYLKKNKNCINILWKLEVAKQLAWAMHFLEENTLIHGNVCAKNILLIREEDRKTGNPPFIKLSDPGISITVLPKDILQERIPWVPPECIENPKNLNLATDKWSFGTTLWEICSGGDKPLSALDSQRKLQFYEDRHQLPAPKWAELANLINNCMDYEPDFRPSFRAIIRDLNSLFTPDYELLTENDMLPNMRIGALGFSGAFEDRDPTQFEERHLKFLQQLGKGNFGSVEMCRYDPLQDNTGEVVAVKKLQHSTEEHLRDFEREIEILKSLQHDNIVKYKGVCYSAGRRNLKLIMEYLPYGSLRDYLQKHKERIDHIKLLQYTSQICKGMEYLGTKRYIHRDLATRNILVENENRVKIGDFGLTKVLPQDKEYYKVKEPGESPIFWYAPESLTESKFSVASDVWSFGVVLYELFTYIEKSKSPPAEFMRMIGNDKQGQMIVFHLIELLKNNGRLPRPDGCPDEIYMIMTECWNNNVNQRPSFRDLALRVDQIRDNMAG
pIC50: −log10 of the molar value.
Quantity Kind: pIC50

[[record]]
smiles_repr = "C[C@H](N)CNc1cc2nc[nH]c(=O)c2c(Nc2cccc3cc[nH]c23)n1"
system_under_test = "Tyrosine-protein kinase JAK2 (Homo sapiens)"
value_measured = 6.01


I = N[C@H]1COCC[C@H]1Nc1cc2cc[nH]c(=O)c2c(Nc2cccc3cc[nH]c23)n1
II = N[C@H]1CCCC[C@H]1Nc1cc2nc[nH]c(=O)c2c(Nc2cccc3c(Cl)c[nH]c23)n1
III = Cc1c[nH]c2c(Nc3nc(N[C@@H]4CCCC[C@@H]4N)cc4cc[nH]c(=O)c34)cccc12
Sort by pIC50, descending. Reply: labels, ordered per the request.
III, I, II
(III: 6.52, I: 6.17, II: 5.74)
